Assay system thrombin (Homo sapiens (Human), UniProt P00734); read-out recorded as pKi.
pKi: −log10 of the molar value. Structures can show the parent of a compound that is named as a salt.
result-type: pKi

Solved cases (3 shown):
compound | number
N=C(N)c1ccc(CNC(=O)CNC(=O)[C@@H](CO)NS(=O)(=O)Cc2ccc(CC(=O)O)cc2)cc1 | 4.22
N=C(N)c1ccc(CNC(=O)CNC(=O)[C@@H](CO)NS(=O)(=O)Cc2ccccc2)cc1 | 4.89
N=C(N)c1ccc(CNC(=O)CNC(=O)[C@@H](CO)NS(=O)(=O)Cc2ccc(F)cc2)cc1 | 5.10

A. N=C(N)c1ccc(CNC(=O)[C@H](CCCN=C(N)N)NC(=O)[C@@H](CO)NS(=O)(=O)Cc2ccccc2)cc1 [X=Arg, TFA]
B. N=C(N)c1ccc(CNC(=O)CNC(=O)[C@@H](CO)NS(=O)(=O)Cc2ccc(Cl)c(Cl)c2)cc1
In terms of reported pKi, does A or B have the smaller number? Identify your pick by its label. B
(B: 5.08, A: 5.33)
